As shown below, each of these molecules has a reported pIC50 value.
molecular target: human recombinant GPR65 (Homo sapiens); experiment: Human GPR65 cAMP HTRF antagonist assay; details: 1321N1-hrGPR65 cells, assay pH 7.2, cAMP HTRF; read-out: hGPR65 IC50
Sequence (Q8IYL9 whole entry): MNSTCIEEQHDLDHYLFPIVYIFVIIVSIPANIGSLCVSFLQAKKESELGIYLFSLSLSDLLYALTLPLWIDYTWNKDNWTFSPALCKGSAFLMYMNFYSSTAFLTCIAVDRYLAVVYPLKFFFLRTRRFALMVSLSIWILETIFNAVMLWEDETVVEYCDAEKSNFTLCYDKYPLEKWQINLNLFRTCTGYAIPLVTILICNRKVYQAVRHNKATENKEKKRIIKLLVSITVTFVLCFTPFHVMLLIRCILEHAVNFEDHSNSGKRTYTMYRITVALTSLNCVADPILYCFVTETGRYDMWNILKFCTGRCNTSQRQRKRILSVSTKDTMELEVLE
pIC50: −log10 of the molar value.

Lab note: CN1CC2(COc3ccc(-c4cc(F)c(NC(=O)N5[C@H]6CC[C@@H]5c5c[nH]c(=O)cc5C6)cc4Cl)cn3)CC1C2 gave pIC50 of 5.30 to 6.30

Measured pIC50, O=C(Nc1cc(Cl)c(COc2cccc(OC3CCCC3)n2)cc1F)N1[C@H]2CC[C@@H]1c1n[nH]c(=O)cc1C2 : > 6.30

// recorded pIC50 for N#Cc1cc(NC(=O)N2[C@H]3CC[C@@H]2c2ccnc(F)c2C3)c(F)cc1Cl : > 6.30

Form: molecule = O=C(Nc1ccc(-c2ccc(OCC(F)(F)F)nc2)cc1F)N1[C@H]2CC[C@@H]1c1n[nH]c(=O)cc1C2 ; pIC50 = > 6.30
